# Test system: E. faecalis (Ef)
# protocolSummary: Broth microdilution minimum inhibitory concentration (MIC), CLSI
# Format: cell-based
# experimentalConditions: Enterococcus faecalis, growth medium supplemented with sodium bicarbonate, read-out: Ef + bicarb MIC
quantity: MIC

Some solved entries appear below for comparison.
1. CC(C)(N)C(=O)N1CCN(C(=O)Nc2ccn(-c3ccc(C(N)C(=O)N4C[C@@H]5[C@@H](N)[C@@H]5C4)cc3)c(=O)n2)CC1 (stereo partly drawn)
> 32 µg/mL
2. CC(C)(N)C(=O)N1CCN(C(=O)Nc2ccn(-c3ccc(CN4C5CCC4CC(N)C5)cc3)c(=O)n2)CC1 (stereo not drawn)
8 to 32 µg/mL
3. CC(C)(N)C(=O)N1CCN(C(=O)Nc2ccn(-c3ccc(CCN4CC5CC5(CN)C4)c(C(F)(F)F)c3)c(=O)n2)CC1 (stereo not drawn)
< 8 µg/mL
4. CC(C)(N)C(=O)N1CCN(C(=O)Nc2ccn(-c3ccc(CCN4CC5(CCC5N)C4)cc3)c(=O)n2)CC1 (stereo not drawn)
8 to 32 µg/mL

# get_value(readout= MIC, system= E. faecalis (Ef)) for N[C@@H]1[C@H]2CN(Cc3ccc(-n4ccc(NC(=O)N5CCC6(CCNC6)C5)nc4=O)cc3)C[C@@H]12 (stereo partly drawn) > 32 µg/mL

Entry N[C@@H]1[C@H]2CN(Cc3ccc(-n4ccc(NC(=O)N5CCC6(CC5)CNC6)nc4=O)cc3)C[C@@H]12 please > 32 µg/mL

###

# System: E. coli S30 extract (bacterial protein synthesis)
# protocolSummary: E. coli S30 extract coupled transcription-translation luciferase assay (inhibition of bacterial protein synthesis)
# Assay type: biochemical
# experimentalConditions: % inhibition @ 1 μM, read-out: S30 IC50 (μM/% inhib.)
Below: a set of entries, each annotated with reported IC50.

1) NCC1CC2(CCN(C(=O)Nc3ccn(-c4ccc(CN5C[C@@H]6[C@@H](N)[C@@H]6C5)cc4)c(=O)n3)CC2)C1 [Compound 252]
0.5 to 1 µM

I would be grateful if you could share the reported IC50 for CC(Cc1ccc(-n2ccc(NC(=O)N3CCN(C(=O)C(C)(C)N)CC3)nc2=O)cc1)N(C)C12CC(CN)(C1)C2 (centres unmarked) [Compound 200] . ≥ 1 µM

Entry CC(C)(N)C(=O)N1CCN(C(=O)Nc2ccn(-c3ccc(CNC[C@@H]4[C@H]5CNC[C@@H]45)cc3)c(=O)n2)CC1 [Compound 190] please < 0.5 µM

Entry NC[C@@H]1[C@H]2CN(C(=O)Nc3ccn(-c4ccc(CN5C[C@@H]6[C@@H](N)[C@@H]6C5)cc4)c(=O)n3)C[C@@H]12 [Compound 247] please ≥ 1 µM

Entry CC(Cc1ccc(-n2ccc(NC(=O)N3CCN(C(=O)C(C)(C)NCS(=O)(=O)O)CC3)nc2=O)cc1)N1C[C@@H]2[C@@H](CNCS(=O)(=O)O)[C@@H]2C1 (some centres unmarked) [Compound 241] please < 0.5 µM

Entry CCC(Cc1ccc(-n2ccc(NC(=O)N3CCN(C(=O)C(C)(C)N)CC3)nc2=O)cc1)N1CC2CCC(N)CC2C1 (centres unmarked) [Compound 245] please 0.5 to 1 µM

Entry CC(C)(N)C(=O)N1CCN(C(=O)Nc2ccn(-c3ccc(OCCN4C[C@@H]5[C@@H](CN)[C@@H]5C4)cc3)c(=O)n2)CC1 [Compound 187] please < 0.5 µM

Entry CCC(Cc1ccc(-n2ccc(NC(=O)N3CCN(C(=O)C(C)(C)N)CC3)nc2=O)cc1)N1CC2CCC(N)CC2C1 (centres unmarked) [Compound 218] please < 0.5 µM

Entry CC(C)(N)C(=O)N1CCN(C(=O)Nc2ccn(-c3ccc(CCN4C[C@@H]5[C@H](C4)[C@H]5C(N)CO)cc3)c(=O)n2)CC1 (some centres unmarked) [Compound 210] please 0.5 to 1 µM

Entry N[C@@H]1[C@H]2CN(Cc3ccc(-n4ccc(NC(=O)N5C[C@@H]6[C@@H](N)[C@@H]6C5)nc4=O)cc3)C[C@@H]12 [Compound 249] please ≥ 1 µM

Entry CN(Cc1ccc(-n2ccc(NC(=O)N3CCN(C(=O)C(C)(C)N)CC3)nc2=O)cc1)C12CCC(N)(CC1)C2 [Compound 164] please < 0.5 µM

Entry CC(C)(N)C(=O)N1CCN(C(=O)Nc2ccn(-c3ccc(CCCN4C[C@@H]5[C@@H](CN)[C@@H]5C4)cc3)c(=O)n2)CC1 [Compound 185] please ≥ 1 µM

Entry CC(C)(N)C(=O)N1CCN(C(=O)Nc2ccn(-c3ccc(CNC45CCC(N)(CC4)C5)cc3)c(=O)n2)CC1 [Compound 168] please < 0.5 µM

Entry CC(Cc1ccc(-n2ccc(NC(=O)N3CCN(C(=O)C(C)(C)N)CC3)nc2=O)cc1)N1CCC2(CC1)CNC2 (centres unmarked) [Compound 163] please ≥ 1 µM

###

# System: E. coli (Ec)
# protocolSummary: Broth microdilution minimum inhibitory concentration (MIC), CLSI
# Type: cell-based
# experimentalConditions: Escherichia coli, growth medium supplemented with sodium bicarbonate, read-out: E. coli + bicarb MIC
Below: a set of entries, each annotated with reported MIC.

Some solved entries appear below for comparison.
1) N[C@@H]1[C@H]2CN(Cc3ccc(-n4ccc(NC(=O)N5CCC6(CCNCC6)CC5)nc4=O)cc3)C[C@@H]12 [Compound 62]
< 8 mg/L
2) CC(C)(N)C(=O)N1CCN(C(=O)Nc2ccn(-c3ccc(CN4CCC5(CCNCC5)CC4)cc3)c(=O)n2)CC1 [Compound 82]
< 8 mg/L
3) C[C@](N)(CO)C(=O)N1CCN(C(=O)Nc2ccn(-c3ccc(CCN4C[C@@H]5[C@@H](N)[C@@H]5C4)cc3)c(=O)n2)CC1 [Compound 85]
> 32 mg/L
4) CC(C)(N)C(=O)N1CCN(C(=O)Nc2ccn(-c3ccc(CN4CC5(CC(N)C5)C4)cc3)c(=O)n2)CC1 [Compound 34]
< 8 mg/L
5) C[C@](N)(CO)C(=O)N1CCN(C(=O)Nc2ccn(-c3ccc(CN4CC5(CC(N)C5)C4)cc3)c(=O)n2)CC1 [Compound 36]
< 8 mg/L
6) CC(C)(N)C(=O)N1CCN(C(=O)Nc2ccn(-c3cccc(CCN4CCC5(CC4)CC(N)C5)c3)c(=O)n2)CC1 [Compound 110]
< 8 mg/L
7) NCC[C@H](N)C(=O)N1CCN(C(=O)Nc2ccn(-c3ccc(CN4C[C@@H]5[C@@H](N)[C@@H]5C4)cc3)c(=O)n2)CC1 [Compound 41]
> 32 mg/L
8) CC(C)(N)C(=O)N1CCN(C(=O)Nc2ccn(-c3ccc(CN4CC5(CNC5)C4)cc3)c(=O)n2)CC1 [Compound 46]
< 8 mg/L
9) CC(C)(N)C(=O)N1CCN(C(=O)Nc2ccn(-c3ccc(CN4CCC5(CC4)CC5N)cc3)c(=O)n2)CC1 (stereo not shown) [Compound 39]
< 8 mg/L
10) CC(C)CC(Cc1ccc(-n2ccc(NC(=O)N3CCN(C(=O)C(C)(C)N)CC3)nc2=O)cc1)N1C[C@@H]2[C@@H](CN)[C@@H]2C1 (stereo partly shown) [Compound 156]
< 8 mg/L

I would be grateful if you could share the reported MIC for CNC[C@@H]1[C@H]2CN(C(C)Cc3ccc(-n4ccc(NC(=O)N5CCN(C(=O)C(C)(C)N)CC5)nc4=O)cc3)C[C@@H]12 (stereo partly shown) [Compound 138] . < 8 mg/L

Entry CC(C)(N)C(=O)N1CCN(C(=O)Nc2ccn(-c3ccc(C(N)C(=O)N4C[C@@H]5[C@@H](CN)[C@@H]5C4)cc3)c(=O)n2)CC1 (stereo partly shown) [Compound 137] please > 32 mg/L

Entry C[C@](N)(CO)C(=O)N1CCN(C(=O)Nc2ccn(-c3cccc(CCN4C[C@@H]5[C@@H](N)[C@@H]5C4)c3)c(=O)n2)CC1 [Compound 89] please 8 to 32 mg/L

###

# Test system: E. faecalis (Ef)
# protocolSummary: Broth microdilution minimum inhibitory concentration (MIC), CLSI
# Assay type: cell-based
# experimentalConditions: Enterococcus faecalis, growth medium supplemented with sodium bicarbonate, read-out: Ef + bicarb MIC
Below: a set of entries, each annotated with reported MIC.

1) CC(C)(N)C(=O)N1CCN(C(=O)Nc2ccn(-c3ccc(CN4CCC5(CCC5N)CC4)cc3)c(=O)n2)CC1 (stereo not drawn) [Compound 38]
8 to 32 µg/mL

I would be grateful if you could share the reported MIC for CC(C)(N)C(=O)N1CCN(C(=O)Nc2ccn(-c3ccc(CN4C[C@@H]5[C@@H](N)[C@@H]5[C@H]4CO)cc3)c(=O)n2)CC1 [Compound 66] . > 32 µg/mL

Entry CC(C)(N)C(=O)N1CCN(C(=O)Nc2ccn(-c3ccc(CCN4CCC5(CC4)CC5N)cc3)c(=O)n2)CC1 (stereo not drawn) [Compound 94] please 8 to 32 µg/mL

Entry CC(C)(N)C1CN(C(=O)Nc2ccn(-c3ccc(CN4C[C@@H]5[C@@H](N)[C@@H]5C4)cc3)c(=O)n2)CCO1 (stereo partly drawn) [Compound 56] please > 32 µg/mL

Entry NC[C@@H]1[C@H]2CN(CCc3ccc(-n4ccc(NC(=O)N5CCC6(CCNC6)C5)nc4=O)cc3)C[C@@H]12 (stereo partly drawn) [Compound 145] please > 32 µg/mL

Entry CC(Cc1ccc(-n2ccc(NC(=O)N3CCN(C(=O)C(C)(C)N)CC3)nc2=O)cc1)N1C[C@@H]2[C@@H](CN)[C@@H]2[C@H]1CO (stereo partly drawn) [Compound 157] please 8 to 32 µg/mL
